# Lookup of reported TGI keyed by entry
System: HOP-92 NSCLC
Protocol Description: NCI tumour cell line growth inhibition, 48 h

Example entries and their recorded answers appear below.
| Compound | Assay Result |
| --- | --- |
| CC(=O)NC1=C(NC(C)(C)C)C(=O)c2ccccc2C1=O | 34.6 µM |
| NC(=O)CCC(Nc1c2ccccc2nc2ccccc12)C(=O)O (configuration not stated) | > 100 µM |
| Oc1c(Cl)c(Cl)c(O)c(CCNc2ccc3ncccc3c2)c1Cl | > 100 µM |

Form: Entry = Cc1cc(C)c(S(=O)(=O)N2CCCN(S(=O)(=O)c3c(C)cc(C)cc3C)OCCCO2)c(C)c1 | System = HOP-92 NSCLC | TGI = ____
> 100 µM

Same question for O=P1(Oc2ccc(Cl)cc2Cl)Oc2ccc3ccccc3c2-c2c(ccc3ccccc23)O1 please.
50.1 µM

Do the same for CC(=O)CC(N)=O please
> 100 µM

Same again, this time with O=C(O)C1CCCCC1C(=O)Nn1cnnc1 (configuration not stated)
> 100 µM

Same question for Cc1ccc(Cc2cnc(NC(=O)/C=C/c3cccc(C)c3)s2)cc1 please.
> 57 µM

Try this compound too: C=C1C(=O)O[C@H]2[C@H]1CC/C(COC(=O)C(=O)c1cn(C)c3ccc(Cl)cc13)=C\CC[C@@]1(C)O[C@@H]21
3.62 µM

Queued: COC(=O)[C@]12CC[C@H]3CC[C@H]([C@H]31)[C@H](c1ccccc1)N2
30.3 µM

# repeat for O=C1CC(=O)N(C(=O)c2nn(-c3ccc(Cl)cc3)cc2O)N1
> 100 µM

Consider next the compound COc1ccc(/C=C2\CN(C)C/C(=C\c3ccc(OC)cc3)C2=O)cc1 in the same way.
> 100 µM

And then Cc1ccc(/C(O)=C/c2nc3c(nc2NC24CC5CC(CC(C5)C2)C4)c(=O)oc2ccccc23)cc1 , what is it?
> 100 µM

One more compound: COC(=O)c1cc2c3ccccc3n3c(=O)c4cc5ccccc5nc4c(n1)c23
> 100 µM

Do the same for Nc1nc(Cl)c(/C=N\O)c(NCC2(CO)CCC2)n1 please
> 100 µM

Please give the result for COc1cc(S(=O)(=O)Nc2nc(-c3ccc(N4C(=O)/C(=C/C=C/c5ccccc5)N=C4c4ccccc4)cc3)cs2)ccc1Cl too.
> 100 µM

Record: CCn1c(SCC(=O)N/N=C/c2ccccc2)nc2ccccc2c1=O
> 79 µM

Can you check CC1=C[C@]2(O)C(=O)[C@H](C)C[C@H]3[C@@H](CC[C@@](C)(O)/C=C\2C1=O)C3(C)C next?
48.2 µM

# repeat for Cc1ccc(N2C(=O)C=C(C3=C(O)C(=O)N(c4ccc(C)cc4)C3=O)C2=O)cc1
> 100 µM

What would you report for Cn1c(=O)n2n(c1=O)C(S(=O)(=O)c1ccccc1)C2 (configuration not stated) ?
> 100 µM

Then O=C1O/C(=C\c2ccccc2)N(c2ccccc2)C1=O ?
> 100 µM

Would you mind doing O=C1C=CC(=O)C12CCc1ccccc12 as well?
> 100 µM

Again, but for O=C1CCCCCCCCCCC1CCCCCBr (configuration not stated)
67.6 µM
